Some molecules, each annotated with its measured activity change, negative = inhibition.
# ASSAY_TEXT: CMV-Luciferase Counterscreen for Inhibitors of ATXN expression; further: nearly all actives have a fitted effect of over 55% in size; on activity change, negative = inhibition: on the % scale 0 is the no-effect control and ±100 the full control effect
# RUN_PARAMETERS: HEK-293 CMV-luciferase reporter, luminescence, 24 h; series mostly up to 57.5 µM
The whole screen tested about 2,100 compounds, of which about 670 (32%) were called active. Another 50% or so got no clear call; they are omitted. The list shows a part of the results.

In [3]: df
Out[3]:
                                   molecule                          result
0  C[C@H]1CCC[C@H](O)CCCCCc2cc(O)cc(O)c2C(=O)O1   13.6% [at 11.4 µM] (inactive)
1  CCC1(OC(=O)CN)C(=O)OCc2c1cc1n(c2=O)Cc2cc3ccccc3nc2-1 (configuration not stated)  -43.6% [at 11.4 µM] (inactive)
2  COC1C(O)C(C)OC(OC2C(Oc3cccc4c(O)c5c(=O)oc6ccc(C)c7c(=O)oc(c34)c5c67)OC(C)C(O)C2O)C1O (configuration not stated)  -15.7% [at 11.4 µM] (inactive)
3                Clc1ccc2[nH]c3c(c2c1)CCNC3  -18.6% [at 11.4 µM] (inactive)
4  C[C@]12CC[C@H](O)C[C@H]1CC[C@@H]1C2CC[C@]2(C)[C@@H](C3=CC(=O)OC3)[C@@H](O)C[C@]12O (some centres not stated)  -13.9% [at 11.4 µM] (inactive)

[in] Using the record for Cc1ccc(N2C(=O)NC(=O)/C(=C/C=C/c3ccco3)C2=O)cc1 , state its measured activity change, negative = inhibition.
[out] 82.1% [at 11.4 µM] (inactive)

[in] Using the record for N#Cc1cn(C2OC(CO)C(O)C2O)c2ncnc(N)c12 (configuration not stated) , state its measured activity change, negative = inhibition.
[out] -77.3% [at 11.4 µM] (inactive)

###

# ASSAY_TEXT: CMV-Luciferase Counterscreen for Inhibitors of ATXN expression; further: nearly all actives have a fitted effect of over 55% in size
# RUN_PARAMETERS: HEK-293 CMV-luciferase reporter, luminescence, 24 h; series mostly up to 57.5 µM
Among all 2,100 compounds or so, about 670 (32%) were called active. Roughly 50% stayed inconclusive and do not appear here. Calls follow the shape of the dose curve; as a rule, active = well fitted inhibition curve with a large enough effect; inconclusive = small, poorly fitted or top-dose-only effect; inactive = no such curve, though single readings can be large or run the other way. The list shows a part of the results.
Valid outcomes are listed here; reply with one: YES (active), NO (inactive)

Answered cases to consult:
>>> df
                                   compound  classification
0  Cc1ccc(-c2nc(N(C)C3CCN(C)CC3)c3ccccc3n2)cc1             YES
1  NC(Cc1ccc(F)cc1)c1csc(Nc2ccccn2)n1 (stereo not given)              NO
2  CC(C)(C)n1nnnc1C(CCc1ccccc1)N1CCC(n2c(=O)[nH]c3ccccc32)CC1 (stereo not given)             YES

[in] Could you kindly confirm the outcome this assay logged for C[C@]12CCC3C(CCC4=CC(O)CC[C@@]43/C=N/O)C1(O)CCC2C1=CC(=O)OC1 (stereo not given in full) ?
[out] NO

[in] Could you kindly confirm the outcome this assay logged for CCCCN=C[C@]12CCC(O)CC1(O)CCC1[C@@H]2CC[C@]2(C)[C@H](C3C=CC(=O)O3)CCC12O (stereo not given in full) ?
[out] NO

[in] Could you kindly confirm the outcome this assay logged for O=[N+]([O-])c1ccc(C(c2ccc([N+](=O)[O-])cc2)c2ccc([N+](=O)[O-])cc2)cc1 ?
[out] YES
